system under test: ATP-binding cassette sub-family C member 3 (MRP3) (Rattus norvegicus)
procedure text: TP_TRANSPORTER: inhibition of E217betaG uptake (E217betaG: 0.055 uM, TLC-S: 20 uM) in membrane vesicles from LLC-PK1 cells
Format: functional, cell membranes, Membrane vesicle
Design: scale not given: the % may be the effect or the level left
settings: pig, probe E217betaG, read-out: Activity
readout type: activity at 20 µM

Value of measured activity at 20 µM for the entry C[C@H](CCC(=O)NCCS(=O)(=O)O)C1CC[C@H]2[C@@H]3CC[C@@H]4C[C@H](OS(=O)(=O)O)CC[C@]4(C)[C@H]3CC[C@]12C (stereo partly specified) : 15.5%

====

system under test: UniProtKB O88563
procedure text: TP_TRANSPORTER: inhibition of Taurocholate uptake (Taurochorate: 1.2 uM, TLCAS: 20 uM) in membrane vesicles isolated from Mrp3-expressing LLC-PK1 cells
Assay type: functional, cell membranes, Membrane vesicle
Design: scale not given: the % may be the effect or the level left
settings: pig, probe taurocholate, read-out: Activity
readout type: activity at 20 µM (%)
One number for each entry, in %.

Lab entry: UniProtKB O88563 assay, molecule C[C@H](CCC(=O)NCCS(=O)(=O)O)C1CC[C@H]2[C@@H]3CC[C@@H]4C[C@H](OS(=O)(=O)O)CC[C@]4(C)[C@H]3CC[C@]12C (stereo partly specified) , activity at 20 µM = 12.2

====

system under test: ATP-binding cassette sub-family C member 3 (MRP3) (Rattus norvegicus, UniProt O88563)
Sequence (O88563 whole entry): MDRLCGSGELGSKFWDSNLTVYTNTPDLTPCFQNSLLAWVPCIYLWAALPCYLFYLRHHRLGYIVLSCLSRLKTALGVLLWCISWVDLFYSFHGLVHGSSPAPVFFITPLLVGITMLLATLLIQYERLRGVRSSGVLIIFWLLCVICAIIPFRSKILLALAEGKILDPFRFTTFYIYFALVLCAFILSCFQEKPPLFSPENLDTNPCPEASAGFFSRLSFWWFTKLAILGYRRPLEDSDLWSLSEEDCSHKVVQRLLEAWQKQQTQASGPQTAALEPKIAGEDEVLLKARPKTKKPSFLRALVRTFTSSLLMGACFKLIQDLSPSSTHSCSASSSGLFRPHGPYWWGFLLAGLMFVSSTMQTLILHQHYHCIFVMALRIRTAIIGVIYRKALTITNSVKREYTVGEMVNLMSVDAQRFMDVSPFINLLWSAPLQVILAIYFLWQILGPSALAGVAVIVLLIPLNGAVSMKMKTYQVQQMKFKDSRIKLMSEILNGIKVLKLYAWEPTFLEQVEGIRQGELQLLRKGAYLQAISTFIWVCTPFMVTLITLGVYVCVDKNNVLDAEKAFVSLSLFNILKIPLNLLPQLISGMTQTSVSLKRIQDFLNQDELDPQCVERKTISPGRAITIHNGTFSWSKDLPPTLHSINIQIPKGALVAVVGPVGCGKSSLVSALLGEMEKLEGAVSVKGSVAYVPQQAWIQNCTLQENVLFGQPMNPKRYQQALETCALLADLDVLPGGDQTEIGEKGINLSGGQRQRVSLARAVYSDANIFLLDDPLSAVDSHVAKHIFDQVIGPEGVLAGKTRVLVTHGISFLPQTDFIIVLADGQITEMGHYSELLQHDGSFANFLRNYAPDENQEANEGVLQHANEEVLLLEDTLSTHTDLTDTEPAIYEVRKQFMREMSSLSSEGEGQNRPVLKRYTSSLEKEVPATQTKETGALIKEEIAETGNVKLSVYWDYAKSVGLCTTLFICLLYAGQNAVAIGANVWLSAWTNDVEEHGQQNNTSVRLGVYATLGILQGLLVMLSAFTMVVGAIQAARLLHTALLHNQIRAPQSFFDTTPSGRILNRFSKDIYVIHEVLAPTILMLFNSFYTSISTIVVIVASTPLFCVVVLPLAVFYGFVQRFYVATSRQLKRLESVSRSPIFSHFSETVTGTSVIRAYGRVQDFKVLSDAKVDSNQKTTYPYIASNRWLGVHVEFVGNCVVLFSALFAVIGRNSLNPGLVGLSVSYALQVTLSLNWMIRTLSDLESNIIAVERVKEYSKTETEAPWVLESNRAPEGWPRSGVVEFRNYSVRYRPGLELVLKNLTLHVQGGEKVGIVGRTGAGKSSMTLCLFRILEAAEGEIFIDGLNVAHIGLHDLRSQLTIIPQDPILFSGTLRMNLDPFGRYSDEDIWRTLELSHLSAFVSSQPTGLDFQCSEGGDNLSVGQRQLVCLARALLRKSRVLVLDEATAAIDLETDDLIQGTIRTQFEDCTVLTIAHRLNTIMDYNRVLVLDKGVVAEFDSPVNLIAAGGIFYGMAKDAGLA
procedure text: TP_TRANSPORTER: inhibition of Taurocholate uptake (Taurochorate: 1.2 uM, E217betaG: 75 uM) in membrane vesicles from LLC-PK1 cells
Format: functional, cell membranes, Membrane vesicle
Design: scale not given: the % may be the effect or the level left
settings: pig, probe taurocholate, read-out: Activity
readout type: activity at 75 µM (%)
Numbers only, in %.

The reported activity at 75 µM of the compound C[C@]12CC[C@@H]3c4ccc(O)cc4CC[C@H]3[C@@H]1CC[C@@H]2O[C@@H]1O[C@H](C(=O)O)[C@@H](O)[C@H](O)[C@H]1O [ESTRADIOL 17B GLUCURONIDE] was 78.4

====

system under test: ATP-binding cassette sub-family C member 3 (MRP3) (Rattus norvegicus, UniProt O88563)
procedure text: TP_TRANSPORTER: inhibition of Taurocholate uptake (Taurochorate: 1.2 uM, CA: 500 uM) in membrane vesicles from LLC-PK1 cells
Type: functional, cell membranes, Membrane vesicle
Parameters: scale not given: the % may be the effect or the level left
settings: pig, probe taurocholate, read-out: Activity
readout type: activity at 500 µM (%)
Give bare numbers, in %.

Recorded activity at 500 µM (compound C[C@H](CCC(=O)NCC(=O)O)[C@H]1CC[C@H]2[C@@H]3[C@H](O)C[C@@H]4C[C@H](O)CC[C@]4(C)[C@H]3C[C@H](O)[C@]12C [GLYCOCHOLIC ACID] ): 0
